Reference for the values: PubChem BioAssay AID651610

- PROTOCOL_DESCRIPTION: inhibitors of HIV-1 Env-driven cell-cell fusion, primary screen, HeLa-JRFL effector, CEM21 target cells, luciferase (AID 651610);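 further: 0% = plate neutral controls and 100% = maraviroc near 300 nM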
- COND: hits give high values; at 16.7 µM unless noted
Hit rate of the full screen: of about 360,000 compounds, about 3,900 (1.1%) were called active. The list comes from a sample in which actives are over-represented; it also holds close analogues and randomly drawn compounds.
PARAMETER_MEASURED: inhibition

- STRUCTURE_SMILES_STRING: "C[C@@H](O)C#Cc1cnc2c(c1)C(=O)N([C@@H](C)CO)C[C@H](C)[C@H](CN(C)C(=O)c1ccccc1F)O2"
  inhibition: "5.54% (inactive)"
- STRUCTURE_SMILES_STRING: "C[C@H](CO)N1C[C@H](C)[C@H](CN(C)S(=O)(=O)c2ccccc2)Oc2c(NC(=O)Nc3ccccc3)cccc2C1=O"
  inhibition: "-1.17% (inactive)"
- STRUCTURE_SMILES_STRING: "Cn1c(CN2CCOCC2)nc2cc(NC(=O)c3ccc(Cl)cc3)ccc21"
  inhibition: "66.4% [at 12.3 µM] (active)"

Form field inhibition, entry COc1ccc2c3c([nH]c2c1)[C@@H](CO)N(C(=O)c1ccccc1)CC31CCN(Cc2cccnc2)CC1 : -8.66% (inactive)

###

- PROTOCOL_DESCRIPTION: inhibitors of HIV-1 Env-driven cell-cell fusion, primary screen, HeLa-JRFL effector, CEM21 target cells, luciferase (AID 651610);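 further: 0% = plate neutral controls and 100% = maraviroc near 300 nM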
- COND: at 16.7 µM unless noted
The whole screen tested about 360,000 compounds, of which about 3,900 (1.1%) were called active.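 The calls were made as follows: active = mean replicate inhibition score of at least 50 and every replicate individually at or above 50; inconclusive = only one of the two criteria met; inactive = mean below 50 and not all replicates reaching 50.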 Many of the other results were omitted from the sample, so actives are more common in it than they were.
Your answer must be one of the following: active, inactive

- COMPOUND: "C[C@H](CO)N1C[C@H](C)[C@H](CN(C)C(=O)NC2CCCCC2)Oc2ccc(NC(=O)c3ccncc3)cc2CC1=O"
  CLASSIFICATION: "inactive"

For Cc1n[nH]c(=O)c2c1nnn2Cc1ccc(F)cc1 , what call appears in the results of this test?
inactive

For COc1ccccc1-c1cnc2c(c1)C(=O)N([C@@H](C)CO)C[C@H](C)[C@@H](CN(C)C(C)=O)O2 , what call appears in the results of this test?
inactive

For Cc1ccc(CN(CC(=O)NC2CCCCC2)C(=O)c2csnn2)cc1 , what call appears in the results of this test?
inactive

For C[C@H](CO)N1C[C@H](C)[C@@H](CN(C)Cc2ccc(C(=O)Nc3ccccc3N)cc2)Oc2c(NC(=O)c3ccc(-c4nccs4)cc3)cccc2C1=O , what call appears in the results of this test?
inactive

For Cc1cc(C)c2cc(CN(Cc3nnnn3Cc3ccc(F)cc3)C3CCCC3)c(=O)[nH]c2c1 , what call appears in the results of this test?
active

###

# Lookup of reported inhibition keyed by entry
- PROTOCOL_DESCRIPTION: inhibitors of HIV-1 Env-driven cell-cell fusion, primary screen, HeLa-JRFL effector, CEM21 target cells, luciferase (AID 651610);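 further: 0% = plate neutral controls and 100% = maraviroc near 300 nM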
- COND: hits give high values; at 16.7 µM unless noted
The campaign covered roughly 360,000 compounds. About 3,900 (1.1%) were called active. The sample holds actives, similar compounds and a random draw of the others, so the mix is not that of the screen.

Sample records with inhibition:
- STRUCTURE_SMILES_STRING: "O=C(COC(=O)c1ccc(Cl)nc1)NCc1cccs1"
  inhibition: "13.8% [at 12.3 µM] (inactive)"
- STRUCTURE_SMILES_STRING: "COc1ccccc1CNc1nc(Nc2ccccc2Cl)c2sccc2n1"
  inhibition: "20.5% [at 12.3 µM] (inactive)"
- STRUCTURE_SMILES_STRING: "O=C(COC(=O)c1ncc(Cl)c(Cl)c1Cl)NCc1ccccc1"
  inhibition: "-4.53% [at 12.3 µM] (inactive)"
- STRUCTURE_SMILES_STRING: "C[C@H]1CN([C@@H](C)CO)C(=O)c2cc(NC(=O)Nc3cccc4ccccc34)ccc2O[C@@H]1CN(C)C"
  inhibition: "3.97% (inactive)"
- STRUCTURE_SMILES_STRING: "COc1cccc(CNc2nc(NCc3ccccc3OC)nc3ccsc23)c1"
  inhibition: "72.3% [at 12.3 µM] (active)"
- STRUCTURE_SMILES_STRING: "O=S1(=O)c2c(cccc2N2CCCC2)O[C@H](COCc2ccccc2)CN1C1CC1"
  inhibition: "-8.42% [at 12.3 µM] (inactive)"

Form field inhibition, entry C[C@@H]1CN([C@@H](C)CO)C(=O)c2cc(NC(=O)Nc3cccc4ccccc34)ccc2O[C@@H]1CN(C)C(=O)Nc1cccc2ccccc12 : 7.37% (inactive)

Form field inhibition, entry C[C@@H]1CN([C@@H](C)CO)C(=O)Cc2cc(NS(C)(=O)=O)ccc2O[C@H]1CN(C)S(=O)(=O)c1ccc(F)cc1 : -0.637% (inactive)

Form field inhibition, entry COCCNc1nc(NCc2ccc(NC(C)=O)cc2)c2sccc2n1 : -25.8% [at 12.3 µM] (inactive)
